- Tested on: RARg homodimer (NR concentration 270 nM)
- EXPERIMENTAL PROTOCOL: PBM binding z-score (relative to random genomic background probes); higher = stronger binding; sequences stand for … in GC…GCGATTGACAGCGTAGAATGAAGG
Listing of entries alongside the reported PBM binding z-score.
ASSAY READOUT: PBM binding z-score

1) TTACCCAGGTGAAAGGTCGTTGATGCACGCCTTG	1.53
2) TCTATTAATTGATTAGGGCAACCGAAACAGCGGA	0.432
3) CCGACTGGGGCATGGTTACCATAACGCACAGCCA	0.399
4) GCGACTGAGGCATCAGCAGGTTACCATAACTTAA	-0.35
5) ATCGAAAGGTCGTGGTGAGTATAGAGAAAGGGAA	3.8
6) CCTTACGGGTCAAGGATATAGCACGGGTGGTACG	4.5
7) CTACCAAGATGAACAAGGTCGTTGATTACTATTC	0.551
8) TCAGACAGGTGAAGGTGACTCAGGTACGCAGTCG	0.949
9) TAGCCTAGGTCAGATCGGGCCAGTGTACGCTATA	3.6
10) CTCGAAAGGTCGTGCTCAGGTGGGTATACCAAAC	3.96
11) ATCTCTAGGTAAGACTCACTTCAGTGAAGAACGC	0.301
12) AGAAGGAGGTTAAGATCAGGGAAACAGAATACAT	1.36
13) ATCGAAAGGTCGAGGTGCGTATAGAGAAAGGGAA	4.33
14) GCTATTAGTTGAAGGGGCAACCGAATGATTCTCG	0.529
15) CGAACGAGAGCATGAGTTGATAGCAAATGCCGAT	0.132
16) TCTATTAGTTGATTAGTGCAACCGAAACAGCGGA	0.362
17) GCCTACGGGTCAAAGGTTATAGCATGAATAGAAT	4.24
18) CATACAGGGTCTGCTAGGCCAGAGTAGGGACGGC	0.276
19) TAGCCTACGTCATTCAGGGGCCAGTATAGAAAGC	0.097
20) GGAGCGAGGGCATTCGAGTTGATAGCATGGCGAT	1.26
21) TAGCCTAGGTCATGCGGGCCAGTAGAGTGTCGGC	4.71
22) CGTCAAGGTTCAAGGTAACGTAACAGAAAGCAGC	2.71
23) TCATATAGGTAAAGGTGGAAGTCGAACGATATGA	0.404
24) CTCGAAAGGTCGGTTGAGGTGAGTACACGGATAA	2.79
25) CTCGAAAGGTCGGGCTCAGGTGAGTATACCAAAC	3.19
26) AGGCAAAGTTCAGGACGAGGTAACGTAAAGCACG	5.16

----------
- System: LXRa:RXRa (NR concentration 270 nM, RXRa partner concentration 90 nM)
- EXPERIMENTAL PROTOCOL: PBM binding z-score (relative to random genomic background probes); higher = stronger binding; sequences stand for … in GC…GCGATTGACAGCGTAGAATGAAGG
Listing of entries alongside the reported PBM binding z-score.
ASSAY READOUT: PBM binding z-score

1) CCTACTGGGCTAAGGTCATTGATCAGTCAAAGCA	3.94
2) GATGCAGGGTCAAGGCCAGAGTACGCGTATTGAT	3.82
3) CCAGACAGGTGAGAAGTTAACTCAGCCTCGATTA	-0.285
4) ATCGAAAGGTCGAGGTGAGGATAGAGAAAGGGAA	3.16
5) ACAGTCAGGTGAGTGAAGGTAACTCAGCTGGACG	0.217
6) ATCGAAAGGTCGACAAGGTGAGTATACACCGTTT	3.45
7) TATACAGGGTCAAGGGCCAGAGTACGAATGTCGA	5.65
8) TCTGCTAGGTCCACGATGGTCAGCTAATCTGCTA	-0.399
9) TAGTCTAGGTCATGCGGGCCAGTATAGTGTCGGC	3.48
10) CAAGCTAGGTCACGAAAGGTCAAAGTCGAATGAC	8.14
11) CGAACTATGTCATTGACAGGACAGTGAATAGTAA	-0.306
12) TCGAGTAGGTTAGGGGAATTCAGAATGGCGTCGA	-0.209

----------
- System: PPARg:RXRa (NR concentration 180 nM, RXRa partner concentration 90 nM)
- EXPERIMENTAL PROTOCOL: PBM binding z-score (relative to random genomic background probes); higher = stronger binding; sequences stand for … in GC…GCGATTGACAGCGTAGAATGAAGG
Cut-off 3 on PBM binding z-score, inclusive. At or above means YES; below means NO.

1. GTACCAAGGTGTATAGGTCGTTGATGAGTAGGCG	NO
2. TCTCGGAGGACACGACAGGTCAGAGCTCGACATC	NO
3. GCAGACAGGTGAAACGCAGGTCACTCAGGGTGGC	NO
4. CGAACTAGGTGAAGGACAGTGAATCTCCGCACGC	YES
5. ACAGACAGGTGAGTGAAGGTAACTAAGCTGGACG	NO
6. CCTAGCAGGCCAGGGTTACTCAAGCATTTCGCTT	NO
7. TCTAGTTGGTCACAGAGGTCACACACGACGGGTA	YES
8. TTTGCTAGGTCAGTTGGTCAGCTAACGAGCTGCC	NO
9. TCATATAGGTAAAAGGTGAACGTCGGTGTGGTAA	YES
10. ATCTCTAGGTAAAGATAGTCCAGTGAATGCAAAT	NO
11. ATCTCTTGGTAAAGTTCAGTGAAAGATCGATAGA	NO
12. TCTATTACTTGATTAGGGCAACCGAAACAGCGGA	NO
13. CCTACTGGGCCAAGGTCAATGATCAGTCAAAGCA	YES
14. TGTCTAAGTTCAAAGGTAACGTAAGTATCCACAC	YES
15. ACTAGTTGGTCAGCTGAGGTCTCACACAATTCGG	NO
16. TTACCAAGGTGAAGGTCGTTGAACCCTCTGTAGA	YES
17. CATTCAGGGTCAGCTAGGCCAGAGTAGGGACGGC	YES
18. ACTCGCAGGCCAAGGGTCACTCAAGATTAGTCCG	YES
19. CCTACTGGGCCACAAAGGTCATTGATGCCGATAA	YES
20. ATACCGAGGTGATCGTGAGGTCGTTGATACTAAC	NO
21. ATACCAGGGTGATCGTGAGGTCGTTGATACTAAC	NO
22. CCGACTGGGACAAGGTTACCATAACGCACAGCCA	NO
23. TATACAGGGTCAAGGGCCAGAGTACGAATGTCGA	YES
24. ATCTCTAGGTAACAATTTCAGTGAAAGAGAGGAC	NO
25. GCGACTGGGGCATCAGCAGGTTATCATAACTTAA	NO
26. TGTAGTTGGTCACGGAGGTCACACACGACGGGTA	YES
27. TAGCCTAGGTCAGTGGGCCAGTATAGTACGCATC	NO
28. TTACCAAGGTGAAAGGTGGTTGATGCACGCCTTG	YES
29. ATCTCTAGGTAAAGATGGTTCAGTGAATGCAAAT	NO
30. AGAATGAGGTTATTAACATCAGGGAATTGCGGTC	NO
31. TCTAGTTGTTCACGGAGGTCACACACGACGGGTA	NO
32. CCTACTGGGCCACGAGAGGTCATTGATTCAGTGA	YES
33. GCTTACGGGTCAAAGGTTATAGAATGAATAGAAT	YES
34. CGTCCAAGCTCATAGGAGGTCAGTGAAGACAGAT	NO
35. TCGAGTAGGTGACCAATGGGGCATTCAGCTTTCT	NO
36. CCTACTGGGCCACGGTCATTGATCAGTCAAAGCA	NO
37. CGTCAAAGTTCAAGGTACCGTAACAGAAAGCAGC	YES
38. AGAATGAGGTTAAGATCAGGCAAACAGAATACAT	NO
39. GCGACTGGGGCTAAGCAGGTTACCATAAGGTTGG	NO
40. AATACAGGGTCACTATGCCAGAGTAGGTACGAAT	YES
41. ACTCGAAGGACAAAGGTCAGAGCTACGCCAGTGA	YES
42. TTATATAGGTAAAGGTGAAAGTCGAACGATATGA	YES
43. TCTGCTCGGTCAACGATGGTCAGCTAATCTGCTA	NO
44. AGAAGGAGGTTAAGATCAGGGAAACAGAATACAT	NO
45. ATATGTAGGTTATCGGGTCATGCAGTTTGCGCAT	YES
46. CCTACAGGGCCATCAGGTCATTGATATCAACGTT	NO
47. ACTATTAGTTGAAACGAGGGCAACCGATAGGTTG	NO
48. TCCGCTAGGTCAGTTGGTCAGCTAACGAGCTGCC	NO
49. CAAACTAGGTTAAGGTCAAAGTCGGTTTGTGCCA	YES
50. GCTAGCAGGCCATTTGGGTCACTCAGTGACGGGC	NO
